Please respond with reported MIC for every item in the list.
Tested on: escherichia coli
Test: Minimum inhibitory concentration in vitro, doubling dilutions
Assay type: cell-based
Details: read-out: Minimum inhibitory concentration (MIC), Eserichia coli SS1107A
Write the answer as a number in µg/mL, unit excluded.

In: Give reported MIC value for CCCCc1cccc(=O)c(O)c1 [IST_009_019]
Out: 25

In: Give reported MIC value for CCCc1cccc(=O)c(O)c1 [IST_009_001]
Out: 12.5

In: Give reported MIC value for CCC(C)c1cccc(=O)c(O)c1 (stereo not shown) [IST_009_008]
Out: 25

* * *

System: haemophilus parasuis
Test: Minimum inhibitory concentration in vitro, doubling dilutions
Type: cell-based
Details: Glaesserella parasuis; strain 2-3A; read-out: Minimum inhibitory concentration (MIC), Haemophilus parasuis 2-3A
Please respond with reported MIC for every item in the list.
Write the answer as a number in µg/mL, unit excluded.

In: Give reported MIC value for `O=c1cccc(Cc2ccccc2)cc1O`
Out: 0.78

In: Give reported MIC value for `CCCCCc1cccc(=O)c(O)c1`
Out: 0.2

In: Give reported MIC value for `CCCCCCCCCCCCCCc1cccc(=O)c(O)c1`
Out: 50

In: Give reported MIC value for CCC(C)c1cccc(=O)c(O)c1 (centres unmarked)
Out: 0.39

In: Give reported MIC value for CC(C)c1cccc(=O)c(O)c1 [IST_001_002, reference compound]
Out: 0.78

In: Give reported MIC value for `CCCCCCCCc1cccc(=O)c(O)c1`
Out: 6.25

In: Give reported MIC value for `CCCc1cccc(=O)c(O)c1`
Out: 0.39

In: Give reported MIC value for `CCCCc1cccc(=O)c(O)c1`
Out: 0.39
